Recorded values, source patent US6218393A.

Test system: AR 1.0 cells
Assay: Potentiation index with doxorubicin titration
Format: cell-based, mouse
Conditions: Table C2, RMA 300 nM
Label yes (1) when Potentiation Index at RMA concentration 300 nM < 50; otherwise no (0).

Worked examples follow.
COc1cc2c(cc1OC)CN(CCc1ccc(NC(=O)c3ccccc3NC(=O)c3ccccc3C)cc1)CC2 [compound 9497] ... no (0)
COc1cc2c(cc1OC)CN(CCc1ccc(NC(=O)c3ccccc3NC(=O)c3cnc(C)cn3)cc1)CC2 [compound 9527] ... no (0)
COc1cc2c(cc1OC)CN(CCc1ccc(NC(=O)c3ccccc3NC(=O)c3ccc(C)c(C)c3)cc1)CC2 [compound 9538] ... no (0)

stdin: Potentiation Index at RMA concentration 300 nM strictly < 50 for this molecule? CCCc1ccc(C(=O)Nc2ccccc2C(=O)NCCN2CCc3cc(OC)c(OC)cc3C2)cc1 [compound 9297]
stdout: yes (1)

stdin: Repeat with COc1cc2c(cc1OC)CN(CCc1ccc(NC(=O)c3ccccc3NC(=O)c3cccs3)cc1)CC2 [compound 9471]
stdout: no (0)

stdin: Repeat with COc1cc2c(cc1OC)CN(CCc1ccc(NC(=O)c3ccc(NO)cc3NC(=O)c3cnc4ccccc4n3)cc1)CC2 [compound 9542]
stdout: no (0)

stdin: Repeat with COc1cc2c(cc1OC)CN(CCc1ccc(NC(=O)c3ccccc3NC(=O)c3ccncc3)cc1)CC2 [compound 9483]
stdout: yes (1)

stdin: Repeat with COc1cc2c(cc1OC)CN(CCc1ccc(NC(=O)c3ccccc3NC(=O)c3cnccn3)cc1)CC2 [compound 9493]
stdout: no (0)

stdin: Repeat with COc1cc2c(cc1OC)CN(CCNC(=O)c1ccccc1NC(=O)c1ccc(C(=O)c3ccccc3)cc1)CC2 [compound 9427]
stdout: yes (1)

stdin: Repeat with COc1cc2c(cc1OC)CN(CCc1ccc(NC(=O)c3ccccc3NC(=O)c3c(F)cccc3F)cc1)CC2 [compound 9514]
stdout: yes (1)
